System: E. faecalis ATCC29212
assay: MIC, microdilution broth method (NCCLS)
Type: cell-based
test.settings: C: E. faecalis ATCC29212, 35° C., 16-20 hours
readout.name: MIC

>  <compound>
CC[C@H]1OC(=O)[C@H](C)C(=O)[C@H](C)[C@@H](O[C@@H]2O[C@H](C)C[C@H](N(C)C)[C@H]2O)[C@](C)(OC(=O)NC/C=C/c2ccc(-c3cccnc3)cc2)C[C@@H](C)C(=O)[C@H](C)[C@H]2NC(=O)O[C@@]21C [Compound 23]

>  <test.system>
E. faecalis ATCC29212

>  <MIC>
0.12 µg/mL

$$$$
>  <compound>
CCC1OC(=O)C(C)(O)C(=O)C(C)C(OC2OC(C)CC(N(C)C)C2O)C(C)(OC(=O)NCC=Cc2ccc(-c3cnccn3)cc2)CC(C)C(=O)C(C)C2NC(=O)OC12C (centres unmarked) [Compound 98]

>  <test.system>
E. faecalis ATCC29212

>  <MIC>
0.25 µg/mL

$$$$
>  <compound>
CC[C@H]1OC(=O)[C@H](C)C(=O)[C@H](C)[C@@H](O[C@@H]2O[C@H](C)C[C@H](N(C)C)[C@H]2O)[C@](C)(OC(=O)NCCN2C(=O)c3ccccc3C2=O)C[C@@H](C)C(=O)[C@H](C)[C@H]2NC(=O)O[C@@]21C [Compound 109]

>  <test.system>
E. faecalis ATCC29212

>  <MIC>
2 µg/mL

$$$$
>  <compound>
CC[C@H]1OC(=O)[C@H](C)C(=O)[C@H](C)[C@@H](O[C@@H]2O[C@H](C)C[C@H](N(C)C)[C@H]2O)[C@](C)(OC(=O)NCc2cccc(-c3ncccn3)c2)C[C@@H](C)C(=O)[C@H](C)[C@H]2NC(=O)O[C@@]21C [Compound 65]

>  <test.system>
E. faecalis ATCC29212

>  <MIC>
0.25 µg/mL

$$$$
>  <compound>
CC[C@H]1OC(=O)[C@H](C)C(=O)[C@H](C)[C@@H](O[C@@H]2O[C@H](C)C[C@H](N(C)C)[C@H]2O)[C@](C)(OC(=O)NC/C=C/c2ccccc2)C[C@@H](C)C(=O)[C@H](C)[C@H]2NC(=O)O[C@@]21C [Compound 4]

>  <test.system>
E. faecalis ATCC29212

>  <MIC>
0.12 µg/mL

$$$$

// each listed compound needs a value for MIC
1. CC[C@H]1OC(=O)[C@H](C)C(=O)[C@H](C)[C@@H](O[C@@H]2O[C@H](C)C[C@H](N(C)C)[C@H]2O)[C@](C)(OC(=O)NC/C=C/C=C/c2cccc(-n3cncn3)n2)C[C@@H](C)C(=O)[C@H](C)[C@H]2NC(=O)O[C@@]21C [Compound 50]
2. CC[C@H]1OC(=O)[C@H](C)C(=O)[C@H](C)[C@@H](O[C@@H]2O[C@H](C)C[C@H](N(C)C)[C@H]2O)[C@](C)(OC(=O)NC2CC(c3ccc(-c4ncccn4)cc3)C2)C[C@@H](C)C(=O)[C@H](C)[C@H]2NC(=O)O[C@@]21C (some centres unmarked) [Compound 136]
3. CC[C@H]1OC(=O)[C@H](C)C(=O)[C@H](C)[C@@H](O[C@@H]2O[C@H](C)C[C@H](N(C)C)[C@H]2O)[C@](C)(OC(=O)NCc2ccc(-n3cncn3)cc2)C[C@@H](C)C(=O)[C@H](C)[C@H]2NC(=O)O[C@@]21C [Compound 10]
4. CCC1OC(=O)C(C)C(=NOC)C(C)C(OC2OC(C)CC(N(C)C)C2O)C(C)(OC(=O)NCC=Cc2ccc(-c3ncccn3)cc2)CC(C)C(=NOC)C(C)C2NC(=O)OC12C (centres unmarked) [Compound 134]
5. CCC1OC(=O)C(C)(F)C(=O)C(C)C(OC2OC(C)CC(N(C)C)C2O)C(C)(OC(=O)NCC=Cc2cn(-c3ncccn3)cn2)CC(C)C(=NO)C(C)C2NC(=O)OC12C (centres unmarked) [Compound 124]

// result
1: 0.06 µg/mL; 2: 4 µg/mL; 3: 0.25 µg/mL; 4: 1 µg/mL; 5: 0.12 µg/mL

Can you give me MIC for all of these, one by one?
1. CCC1OC(=O)C(C)(F)C(=O)C(C)C(OC2OC(C)CC(N(C)C)C2O)C(C)(OC(=O)NCC=Cc2cnc3ccccc3c2)CC(C)C(=NO)C(C)C2NC(=O)OC12C (centres unmarked) [Compound 127]
2. CC[C@H]1OC(=O)[C@H](C)C(=O)[C@H](C)[C@@H](O[C@@H]2O[C@H](C)C[C@H](N(C)C)[C@H]2O)[C@](C)(OC(=O)NCCCc2ccc(N(C)C)cc2)C[C@@H](C)C(=O)[C@H](C)[C@H]2NC(=O)O[C@@]21C [Compound 14]
3. CC[C@H]1OC(=O)[C@H](C)C(=O)[C@H](C)[C@@H](O[C@@H]2O[C@H](C)C[C@H](N(C)C)[C@H]2O)[C@](C)(OC(=O)NCCOCc2ccc(-c3ncccn3)cc2)C[C@@H](C)C(=O)[C@H](C)[C@H]2NC(=O)O[C@@]21C [Compound 107]
4. CC[C@H]1OC(=O)[C@H](C)C(=O)[C@H](C)[C@@H](O[C@@H]2O[C@H](C)C[C@H](N(C)C)[C@H]2O)[C@](C)(OC(=O)NCC=C(c2ccccc2)c2ccccc2)C[C@@H](C)C(=O)[C@H](C)[C@H]2NC(=O)O[C@@]21C [Compound 54]
5. CC[C@H]1OC(=O)[C@H](C)C(=O)[C@H](C)[C@@H](O[C@@H]2O[C@H](C)C[C@H](N(C)C)[C@H]2O)[C@](C)(OC(=O)NC/C=C/c2ccc(-c3nccc(C)n3)cc2)C[C@@H](C)C(=O)[C@H](C)[C@H]2NC(=O)O[C@@]21C [Compound 68]
6. CCC1OC(=O)C(C)(F)C(=O)C(C)C(OC2OC(C)CC(N(C)C)C2O)C(C)(OC(=O)NCC=Cc2ccc(-c3cnccn3)cc2)CC(C)C(=O)C(C)C2NC(=O)OC12C (centres unmarked) [Compound 101]

// result
["0.12 µg/mL", "0.5 µg/mL", "0.12 µg/mL", "0.5 µg/mL", "0.12 µg/mL", "0.12 µg/mL"]

// query Query: MIC; subject: CC[C@H]1OC(=O)[C@H](C)C(=O)[C@H](C)[C@@H](O[C@@H]2O[C@H](C)C[C@H](N(C)C)[C@H]2O)[C@](C)(OC(=O)NCC#Cc2ccccc2)C[C@@H](C)C(=O)[C@H](C)[C@H]2NC(=O)O[C@@]21C [Compound 13]
// result 0.25 µg/mL

Data provenance is patent US6613747B2.
